- target_desc: T1, Ala mutant of TA0096, SEQ ID NO: 37
- T1 peptide: EENMDDQWMQAEMEIGY
- assay_remarks: ELISA, coated peptide
readout_name: OD 490/630 nm
Answer using only a numeral; do not append any unit.

Recorded OD 490/630 nm of E9 (antibody, V domains shown, Chicken variable regions in a mouse chimeric antibody (IgG1); also called anti-PAD4 antibody E9) VH: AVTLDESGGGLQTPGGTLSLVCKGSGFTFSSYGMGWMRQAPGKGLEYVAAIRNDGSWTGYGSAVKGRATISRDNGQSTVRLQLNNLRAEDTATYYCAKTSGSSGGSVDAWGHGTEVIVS VL: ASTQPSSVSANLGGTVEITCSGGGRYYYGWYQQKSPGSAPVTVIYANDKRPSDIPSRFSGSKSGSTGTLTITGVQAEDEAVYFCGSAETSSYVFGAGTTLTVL , please. 1.2

Query: OD 490/630 nm; subject: G9 (antibody, V domains shown, Chicken variable regions in a mouse chimeric antibody (IgG1); also called anti-PAD4 antibody G9) VH: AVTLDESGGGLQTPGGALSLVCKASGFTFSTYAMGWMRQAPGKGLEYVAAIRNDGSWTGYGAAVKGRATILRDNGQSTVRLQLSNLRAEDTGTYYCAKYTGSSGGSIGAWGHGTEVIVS VL: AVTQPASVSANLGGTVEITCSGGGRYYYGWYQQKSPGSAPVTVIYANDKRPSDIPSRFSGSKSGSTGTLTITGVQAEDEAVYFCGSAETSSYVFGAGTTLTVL 1.88

Please look at the following binder next.
I am curious: what OD 490/630 nm value has been reported for G6 (antibody, V domains shown, Chicken variable regions in a mouse chimeric antibody (IgG1); also called anti-PAD4 antibody G6) VH: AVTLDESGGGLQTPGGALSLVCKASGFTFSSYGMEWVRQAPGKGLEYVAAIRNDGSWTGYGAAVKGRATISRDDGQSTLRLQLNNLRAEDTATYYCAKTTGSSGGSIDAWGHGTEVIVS VL: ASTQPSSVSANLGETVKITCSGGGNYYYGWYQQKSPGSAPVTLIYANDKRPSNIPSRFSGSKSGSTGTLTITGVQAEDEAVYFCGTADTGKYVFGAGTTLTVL ? 1.85

// provenance: patent US20180044434A1
